This collection of values is drawn from patent US7304037B2.

- system.under.test: αvβ3 receptor (αvβ3 from human A375 cells) (Homo sapiens, UniProt P05106+P06756)
- Construct: αvβ3 from human A375 cells was purified analogously to a procedure described by Wong et al; endogenous in cells; host or cells: human A375 cells (endogenous receptor, detergent-solubilised and purified)
- Sequence (P06756 31-889 limits assumed): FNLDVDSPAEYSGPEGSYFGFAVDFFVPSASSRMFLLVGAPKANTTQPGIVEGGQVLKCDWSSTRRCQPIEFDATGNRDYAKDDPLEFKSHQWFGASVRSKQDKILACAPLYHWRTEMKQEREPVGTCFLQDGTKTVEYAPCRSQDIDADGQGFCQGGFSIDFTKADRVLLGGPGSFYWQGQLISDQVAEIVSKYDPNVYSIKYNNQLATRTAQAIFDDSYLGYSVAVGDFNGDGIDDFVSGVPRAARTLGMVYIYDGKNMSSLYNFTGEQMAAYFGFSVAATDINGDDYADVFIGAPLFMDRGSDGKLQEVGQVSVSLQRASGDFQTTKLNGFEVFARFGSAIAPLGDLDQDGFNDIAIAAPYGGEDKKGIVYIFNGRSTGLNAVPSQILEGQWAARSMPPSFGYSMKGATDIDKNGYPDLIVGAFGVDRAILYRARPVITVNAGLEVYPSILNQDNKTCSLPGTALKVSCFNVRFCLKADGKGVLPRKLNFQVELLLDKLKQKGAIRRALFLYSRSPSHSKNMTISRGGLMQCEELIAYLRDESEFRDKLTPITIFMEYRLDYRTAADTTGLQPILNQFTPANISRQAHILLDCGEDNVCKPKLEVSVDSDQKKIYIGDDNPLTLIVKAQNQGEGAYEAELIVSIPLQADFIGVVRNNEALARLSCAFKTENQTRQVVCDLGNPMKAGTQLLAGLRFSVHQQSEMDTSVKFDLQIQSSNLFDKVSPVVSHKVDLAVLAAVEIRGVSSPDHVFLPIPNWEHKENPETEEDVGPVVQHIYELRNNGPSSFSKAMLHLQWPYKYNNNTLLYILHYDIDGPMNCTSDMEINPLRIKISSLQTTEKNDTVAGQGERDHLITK
- Sequence (P06756 891-1048 partner limits assumed): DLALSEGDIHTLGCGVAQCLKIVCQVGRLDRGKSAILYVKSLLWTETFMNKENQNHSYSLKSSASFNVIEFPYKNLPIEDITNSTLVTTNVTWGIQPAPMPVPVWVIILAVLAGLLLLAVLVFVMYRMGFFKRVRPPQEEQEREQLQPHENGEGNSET
- Sequence (P05106 27-788): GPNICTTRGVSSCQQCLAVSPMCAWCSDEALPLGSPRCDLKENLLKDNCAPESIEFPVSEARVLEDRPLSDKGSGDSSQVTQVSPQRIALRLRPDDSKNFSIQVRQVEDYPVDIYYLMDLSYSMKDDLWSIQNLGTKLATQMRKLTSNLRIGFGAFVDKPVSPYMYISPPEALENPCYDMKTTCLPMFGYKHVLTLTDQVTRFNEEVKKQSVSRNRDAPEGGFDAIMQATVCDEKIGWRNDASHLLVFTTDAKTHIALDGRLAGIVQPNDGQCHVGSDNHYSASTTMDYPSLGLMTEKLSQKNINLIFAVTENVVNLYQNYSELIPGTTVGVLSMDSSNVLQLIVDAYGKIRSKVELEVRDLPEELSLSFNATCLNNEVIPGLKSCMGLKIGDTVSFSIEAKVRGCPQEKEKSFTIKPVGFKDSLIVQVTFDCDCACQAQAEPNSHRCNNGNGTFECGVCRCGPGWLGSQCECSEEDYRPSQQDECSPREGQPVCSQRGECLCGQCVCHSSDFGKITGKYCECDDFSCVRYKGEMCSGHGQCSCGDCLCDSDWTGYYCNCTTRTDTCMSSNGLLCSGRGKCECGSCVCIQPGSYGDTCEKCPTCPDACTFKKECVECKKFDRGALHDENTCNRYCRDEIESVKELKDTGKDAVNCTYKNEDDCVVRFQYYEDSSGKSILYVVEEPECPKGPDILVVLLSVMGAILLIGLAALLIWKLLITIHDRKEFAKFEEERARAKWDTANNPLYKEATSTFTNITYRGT
- assay.details: αvβ3 binding test (echistatin displacement, SPA)
- experimental.parameters: read-out: IC50 values of the binding to the αVβ3 receptor
reported.metric: IC50 (nM)
Write the answer as a number in nM, unit excluded.

Take a look at these entries with their results.
[[record]]
compound = "CCCNC(=O)Nc1cccc(S(=O)(=O)Nc2cccc(C(CC(=O)O)NC(=O)Nc3ccc(NC(=S)N[C@@H](C)C(=O)N4CCC[C@H]4C(=O)N[C@@H](CC(C)C)C(=O)NC4C=CCC5CN(c6c(F)cc7c(=O)c(C(=O)O)cn(C8CC8)c7c6Cl)CC54)cc3)c2)c1 (single isomer, unassigned)"
reported_metric = "IC50"
assay_value = 30

[[record]]
compound = "CCCNC(=O)Nc1cccc(S(=O)(=O)Nc2cccc(C(CC(=O)O)NC(=O)Nc3ccc(NC(=S)N[C@@H](CCC)C(=O)N4CCC[C@H]4C(=O)N[C@H](C(=O)O[C@]4(CC)C(=O)OCc5c4cc4n(c5=O)Cc5cc6ccccc6nc5-4)C(C)C)cc3)c2)c1 (single isomer, unassigned)"
reported_metric = "IC50"
assay_value = 100


Here's the next entry for you.
I have this compound here, CCCNC(=O)Nc1cccc(S(=O)(=O)Nc2cccc(C(CC(=O)O)NC(=O)Nc3ccc(NC(=S)N[C@@H](Cc4c[nH]cn4)C(=O)N4CCC[C@H]4C(=O)N[C@H](C(=O)O[C@]4(CC)C(=O)OCc5c4cc4n(c5=O)Cc5cc6ccccc6nc5-4)C(C)C)cc3)c2)c1 (single isomer, unassigned) , and I need its recorded IC50. 30

* * *

Catalogue of IC50 readings, one per entry.
- system.under.test: αvβ3 receptor (αvβ3 from human A375 cells) (Homo sapiens, UniProt P05106+P06756)
- Construct: αvβ3 from human A375 cells was purified analogously to a procedure described by Wong et al; endogenous in cells; host or cells: human A375 cells (endogenous receptor, detergent-solubilised and purified)
- assay.details: αvβ3 binding test (echistatin displacement, SPA)
- experimental.parameters: read-out: IC50 values of the binding to the αVβ3 receptor
Write the answer as a number in nM, unit excluded.

Take a look at these entries with their results.
[[record]]
compound = "CCCNC(=O)Nc1cccc(S(=O)(=O)Nc2cccc(C(CC(=O)O)NC(=O)Nc3ccc(NC(=S)N[C@@H](CC(N)=O)C(=O)N4CCC[C@H]4C(=O)N[C@H](C(=O)O[C@]4(CC)C(=O)OCc5c4cc4n(c5=O)Cc5cc6ccccc6nc5-4)C(C)C)cc3)c2)c1 (single isomer, unassigned)"
system_under_test = "αvβ3 receptor (αvβ3 from human A375 cells) (Homo sapiens, UniProt P05106+P06756)"
reported_metric = "IC50"
unit_of_measure = "nM"
assay_value = 100

[[record]]
compound = "CCCNC(=O)Nc1cccc(S(=O)(=O)Nc2cccc(C(CC(=O)O)NC(=O)Nc3ccc(NC(=S)N[C@@H](C)C(=O)N4CCC[C@H]4C(=O)N[C@H](C(=O)O[C@]4(CC)C(=O)OCc5c4cc4n(c5=O)Cc5cc6ccccc6nc5-4)C(C)C)cc3)c2)c1 (single isomer, unassigned) [Example 3]"
system_under_test = "αvβ3 receptor (αvβ3 from human A375 cells) (Homo sapiens, UniProt P05106+P06756)"
reported_metric = "IC50"
unit_of_measure = "nM"
assay_value = 15


Here's the next entry for you.
I have this compound here, CCCNC(=O)Nc1cccc(S(=O)(=O)Nc2cccc(C(CC(=O)O)NC(=O)Nc3ccc(NC(=S)N[C@@H](C)C(=O)N4CCC[C@H]4C(=O)N[C@H](C(=O)O[C@]4(CC)C(=O)OCc5c4cc4n(c5=O)Cc5cc6ccccc6nc5-4)C(C)C)cc3)c2)c1 (single isomer, unassigned) [Example 4] , and I need its recorded IC50. 500

* * *

- System: HT29 human large intestine cell line
- Assay type: cell-based
- experimental.parameters: 6 days
reported.metric: pIC50
The meaning of pIC50 here: minus log10 of the concentration in molar units.

Kindly state the measured pIC50 obtained for CCCNC(=O)Nc1cccc(S(=O)(=O)Nc2cccc(C(CC(=O)O)NC(=O)Nc3ccc(NC(=S)N[C@@H](C)C(=O)N4CCC[C@H]4C(=O)N[C@@H](CC(C)C)C(=O)NC4C=CCC5CN(c6c(F)cc7c(=O)c(C(=O)O)cn(C8CC8)c7c6Cl)CC54)cc3)c2)c1 (single isomer, unassigned) with HT29 human large intestine cell line. 6.22

* * *

- Tested on: SW480 human large intestine cell line
- Assay type: cell-based
Catalogue of IC50 readings, one per entry.
Write the answer as a number in nM, unit excluded.

Take a look at these entries with their results.
[[record]]
molecule = "CCCNC(=O)Nc1cccc(S(=O)(=O)Nc2cccc(C(CC(=O)O)NC(=O)Nc3ccc(NC(=S)N[C@@H](C)C(=O)N4CCC[C@H]4C(=O)N[C@H](C(=O)O[C@]4(CC)C(=O)OCc5c4cc4n(c5=O)Cc5cc6ccccc6nc5-4)C(C)C)cc3)c2)c1 (single isomer, unassigned) [Example 3]"
assay_value = 500

[[record]]
molecule = "CCCNC(=O)Nc1cccc(S(=O)(=O)Nc2cccc(C(CC(=O)[O-])NC(=O)Nc3ccc(NC(=S)NCC(=O)N4CCC[C@H]4C(=O)N[C@H](C(=O)O[C@]4(CC)C(=O)OCc5c4cc4n(c5=O)Cc5cc6ccccc6nc5-4)C(C)C)cc3)c2)c1.[Na+] (single isomer, unassigned) [Example 1]"
assay_value = 150


Here's the next entry for you.
I have this molecule here, CCCNC(=O)Nc1cccc(S(=O)(=O)Nc2cccc(C(CC(=O)[O-])NC(=O)Nc3ccc(NC(=S)NCC(=O)N4CCC[C@H]4C(=O)N[C@H](C(=O)O[C@]4(CC)C(=O)OCc5c4cc4n(c5=O)Cc5cc6ccccc6nc5-4)C(C)C)cc3)c2)c1.[Na+] (single isomer, unassigned) [Example 2] , and I need its recorded IC50. 400

* * *

- Tested on: SW480 human large intestine cell line
- Format: cell-based
reported.metric: pIC50
The meaning of pIC50 here: minus log10 of the concentration in molar units.

Take a look at these entries with their results.
[[record]]
molecule = "CCCNC(=O)Nc1cccc(S(=O)(=O)Nc2cccc(C(CC(=O)O)NC(=O)Nc3ccc(NC(=S)N[C@@H](CC(=O)O)C(=O)N4CCC[C@H]4C(=O)N[C@H](C(=O)O[C@]4(CC)C(=O)OCc5c4cc4n(c5=O)Cc5cc6ccccc6nc5-4)C(C)C)cc3)c2)c1 (single isomer, unassigned)"
assay_value = 7.30

[[record]]
molecule = "CCCNC(=O)Nc1cccc(S(=O)(=O)Nc2cccc(C(CC(=O)O)NC(=O)Nc3ccc(NC(=S)N[C@@H](CC(N)=O)C(=O)N4CCC[C@H]4C(=O)N[C@H](C(=O)O[C@]4(CC)C(=O)OCc5c4cc4n(c5=O)Cc5cc6ccccc6nc5-4)C(C)C)cc3)c2)c1 (single isomer, unassigned)"
assay_value = 6.40


I have this molecule here, CCCNC(=O)Nc1cccc(S(=O)(=O)Nc2cccc(C(CC(=O)O)NC(=O)Nc3ccc(NC(=S)NCC(=O)N4CCC[C@H]4C(=O)N[C@@H](CC(C)C)C(=O)O[C@]4(CC)C(=O)OCc5c4cc4n(c5=O)Cc5cc6ccccc6nc5-4)cc3)c2)c1 (single isomer, unassigned) , and I need its recorded pIC50. 7.15
